Recorded Jagged1 IC50, one value per entry.
- test_system: human Notch2 on U-87 MG cells (human, UniProt Q04721 26-2471)
- Sequence (Q04721 26-2471): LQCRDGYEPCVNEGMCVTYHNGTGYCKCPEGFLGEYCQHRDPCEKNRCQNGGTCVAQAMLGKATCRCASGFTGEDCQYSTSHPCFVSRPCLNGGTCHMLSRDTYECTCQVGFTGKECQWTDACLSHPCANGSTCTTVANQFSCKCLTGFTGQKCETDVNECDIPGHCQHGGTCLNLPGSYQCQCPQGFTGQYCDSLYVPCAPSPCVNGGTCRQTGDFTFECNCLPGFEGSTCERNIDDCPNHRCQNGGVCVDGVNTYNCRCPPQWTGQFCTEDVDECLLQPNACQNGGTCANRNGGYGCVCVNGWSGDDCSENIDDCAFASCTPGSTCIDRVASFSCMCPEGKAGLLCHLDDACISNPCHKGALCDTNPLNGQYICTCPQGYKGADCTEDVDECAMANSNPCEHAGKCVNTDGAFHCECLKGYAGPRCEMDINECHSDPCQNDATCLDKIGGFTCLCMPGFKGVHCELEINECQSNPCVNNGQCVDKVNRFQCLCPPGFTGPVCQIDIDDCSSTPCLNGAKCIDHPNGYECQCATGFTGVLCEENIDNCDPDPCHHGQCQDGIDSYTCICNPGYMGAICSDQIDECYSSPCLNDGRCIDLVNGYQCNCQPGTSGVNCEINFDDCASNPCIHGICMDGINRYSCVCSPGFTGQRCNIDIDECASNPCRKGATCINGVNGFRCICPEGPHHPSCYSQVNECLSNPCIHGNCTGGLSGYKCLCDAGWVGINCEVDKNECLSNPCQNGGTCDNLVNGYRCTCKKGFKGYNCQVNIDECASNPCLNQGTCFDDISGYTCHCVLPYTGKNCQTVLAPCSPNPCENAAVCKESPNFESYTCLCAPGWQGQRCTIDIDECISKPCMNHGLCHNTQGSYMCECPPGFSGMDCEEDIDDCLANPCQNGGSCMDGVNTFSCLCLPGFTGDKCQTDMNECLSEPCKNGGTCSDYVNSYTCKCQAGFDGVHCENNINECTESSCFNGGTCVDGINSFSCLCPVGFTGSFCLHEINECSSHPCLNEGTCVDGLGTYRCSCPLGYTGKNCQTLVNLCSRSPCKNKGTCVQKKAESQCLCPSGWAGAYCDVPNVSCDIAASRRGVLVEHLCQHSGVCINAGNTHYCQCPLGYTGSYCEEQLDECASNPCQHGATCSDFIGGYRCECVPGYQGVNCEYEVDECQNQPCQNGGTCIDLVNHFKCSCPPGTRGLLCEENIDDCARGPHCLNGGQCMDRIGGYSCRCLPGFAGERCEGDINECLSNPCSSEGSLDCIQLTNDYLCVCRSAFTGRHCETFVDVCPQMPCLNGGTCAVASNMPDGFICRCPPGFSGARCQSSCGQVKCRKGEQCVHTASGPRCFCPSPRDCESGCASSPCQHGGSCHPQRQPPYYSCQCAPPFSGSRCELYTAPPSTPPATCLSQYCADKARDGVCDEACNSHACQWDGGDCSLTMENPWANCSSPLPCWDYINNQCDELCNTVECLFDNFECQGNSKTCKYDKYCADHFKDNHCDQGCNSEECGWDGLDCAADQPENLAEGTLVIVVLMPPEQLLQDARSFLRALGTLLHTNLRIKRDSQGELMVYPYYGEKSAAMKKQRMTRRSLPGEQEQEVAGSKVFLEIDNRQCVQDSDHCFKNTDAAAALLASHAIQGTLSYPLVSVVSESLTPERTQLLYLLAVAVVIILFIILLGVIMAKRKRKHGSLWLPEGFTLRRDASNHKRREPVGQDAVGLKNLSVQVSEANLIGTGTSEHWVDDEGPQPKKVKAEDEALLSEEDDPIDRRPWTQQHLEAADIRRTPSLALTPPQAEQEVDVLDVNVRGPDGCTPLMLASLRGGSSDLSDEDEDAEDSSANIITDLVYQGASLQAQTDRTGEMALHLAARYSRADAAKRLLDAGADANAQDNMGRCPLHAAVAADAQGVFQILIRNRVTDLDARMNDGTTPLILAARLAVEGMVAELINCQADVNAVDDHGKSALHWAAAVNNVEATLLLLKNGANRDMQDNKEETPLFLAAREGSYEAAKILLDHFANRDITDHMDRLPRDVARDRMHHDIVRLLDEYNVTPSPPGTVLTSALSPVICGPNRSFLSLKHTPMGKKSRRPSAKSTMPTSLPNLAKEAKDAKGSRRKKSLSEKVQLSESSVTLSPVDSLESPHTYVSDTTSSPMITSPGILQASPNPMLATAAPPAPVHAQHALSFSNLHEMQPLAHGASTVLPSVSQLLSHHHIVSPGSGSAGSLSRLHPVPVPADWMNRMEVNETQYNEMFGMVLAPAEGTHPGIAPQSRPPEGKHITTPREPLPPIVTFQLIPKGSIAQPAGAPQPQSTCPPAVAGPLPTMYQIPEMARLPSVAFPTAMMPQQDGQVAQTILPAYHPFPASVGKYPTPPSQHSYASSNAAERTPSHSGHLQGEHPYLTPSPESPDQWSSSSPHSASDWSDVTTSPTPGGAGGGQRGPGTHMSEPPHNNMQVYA
- assay_procedure: cell-based or functional assay

- binder: "hu.3107.L6H14 (antibody, V domains shown, also called hu.Notch-3107.L6H14) VH: EVQLVQSGAEVKKPGESLKISCKGSGYTFSNYVIHWVRQMPGKGPEWTGYIIPGSGGTKFNEKFKGQATISVDKSSTTAYLQWSSLKASDTAMYYCARDGAGSFTYWGQGTLVTVSS VL: DVVMTQSPDSLAVSLGERATINCRSSQSLVHSDGNTYLHWFQQKPGQPPKLLIYRISNRFSGVPDRFSGSGSGTDFTLTISSLQAEDVAVYYCLQSTHFPDTFGGGTKVEIK"
  units_symbol: "nM"
  Jagged1 IC50: 6.65
- binder: "hu.3107.L1H14 (antibody, V domains shown, also called hu.Notch-3107.L1H14) VH: EVQLVQSGAEVKKPGESLKISCKGSGYTFSNYVIHWVRQMPGKGPEWTGYIIPGSGGTKFNEKFKGQATISVDKSSTTAYLQWSSLKASDTAMYYCARDGAGSFTYWGQGTLVTVSS VL: DVVMTQSPLSLPVTLGQPASISCRSSQSLVHSDGNTYLHWFQQRPGQSPRLLIYRISNRFSGVPDRFSGSGSGTDFTLKISRVEAEDVGVYYCLQSTHFPDTFGGGTKVEIK"
  units_symbol: "nM"
  Jagged1 IC50: 6.95
- binder: "hu.3107.L7H12 (antibody, V domains shown, also called hu.Notch-3107.L7H12) VH: EVQLVQSGAEVKKPGASVKVSCKASGYTFSNYVIHWVRQAPGQGPEWTGYIIPGSGGTKFNEKFKGRATSTVDTSSTTAYMELSRLRSDDTVVYYCARDGAGSFTYWGQGTLVTVSS VL: DIVMTQSPDSLAVSLGERATINCRSSQSLVHSDGNTYLHWYQQKPGQPPKLLIYRISNRFSGVPDRFSGSGSGTDFTLTISSLQAEDVAVYYCLQSTHFPDTFGGGTKVEIK"
  units_symbol: "nM"
  Jagged1 IC50: 11
- binder: "hu.3107.L6H15 (antibody, V domains shown, also called hu.Notch-3107.L6H15) VH: EVQLVQSGAEVKKPGESLKISCKGSGYTFSNYVIHWVRQMPGKGPEWTGYIIPGSGGTKFNEKFKGQATISVDKSITTAYLQWSSLKASDTAMYYCARDGAGSFTYWGQGTLVTVSS VL: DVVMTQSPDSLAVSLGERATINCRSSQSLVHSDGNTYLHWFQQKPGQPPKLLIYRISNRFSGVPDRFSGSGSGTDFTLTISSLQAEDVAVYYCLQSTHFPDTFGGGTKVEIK"
  units_symbol: "nM"
  Jagged1 IC50: 8.03
- binder: "hu.3107.L6H12 (antibody, V domains shown, also called hu.Notch-3107.L6H12) VH: EVQLVQSGAEVKKPGASVKVSCKASGYTFSNYVIHWVRQAPGQGPEWTGYIIPGSGGTKFNEKFKGRATSTVDTSSTTAYMELSRLRSDDTVVYYCARDGAGSFTYWGQGTLVTVSS VL: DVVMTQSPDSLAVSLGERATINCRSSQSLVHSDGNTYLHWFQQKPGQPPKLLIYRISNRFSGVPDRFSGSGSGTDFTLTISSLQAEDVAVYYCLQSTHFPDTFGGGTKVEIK"
  units_symbol: "nM"
  Jagged1 IC50: 4.71
